Kindly supply the reported SETVI herbicidal rating values for the records listed here.
# System: SETVI (Foxtail, Green)
# ASSAY: Postemergence herbicidal evaluation
# Assay type: in vivo, Setaria viridis
# RECORDED_CONDITIONS: postemergence, rate 0.0315 kg/ha
Provide a numeric answer; units are not to be included.

Exam item: # input molecule: CN1C(=O)C(CC(N)=O)SC1=Nc1cc(-n2c(=O)cc(C(F)(F)F)n(C)c2=O)c(F)cc1Cl (centres unmarked) ; wanted: its SETVI herbicidal rating
Marked response: 9.0

Exam item: What do you have for CCOC(=O)CN1C(=O)C(=C(C)C)S/C1=N/c1cc(-n2c(=O)cc(C(F)(F)F)n(C)c2=O)c(F)cc1Cl ?
Marked response: 1.0

Exam item: What do you have for COC(=O)C1(N2C(=O)CSC2=Nc2cc(-n3c(=O)cc(C(F)(F)F)n(C)c3=O)c(F)cc2Cl)CCCCC1 ?
Marked response: 1.0

Exam item: What do you have for COC(=O)CC1SC(=Nc2cc(-n3c(=O)cc(C(F)(F)F)n(C)c3=O)c(F)cc2Cl)N(C)C1=O (centres unmarked) ?
Marked response: 9.0

Exam item: What do you have for COC(=O)[C@H](Cc1ccccc1)N1C(=O)CS/C1=N/c1cc(-n2c(=O)cc(C(F)(F)F)n(C)c2=O)c(F)cc1Cl ?
Marked response: 4.0

Exam item: What do you have for CCOC(=O)C(c1ccc(Cl)cc1)N1C(=O)CSC1=Nc1cc(-n2c(=O)cc(C(F)(F)F)n(C)c2=O)c(F)cc1Cl (racemic) ?
Marked response: 1.0

Exam item: What do you have for Cn1c(C(F)(F)F)cc(=O)n(-c2cc(N=C3SCC(=O)N3C3CCOC3=O)c(Cl)cc2F)c1=O (centres unmarked) ?
Marked response: 2.0

Exam item: What do you have for CCOC(=O)CN1C(=O)C(=Cc2ccc(F)cc2)SC1=Nc1cc(-n2c(=O)cc(C(F)(F)F)n(C)c2=O)c(F)cc1Cl ?
Marked response: 2.0
